test_protocol: Cytotoxicity against human MT4 cells assessed as reduction in cell viability incubated for 5 days by MTT assay
measurement_setup: MT4 cells
readout: CC50 at 120 h

COc1ccc(N(C)C(=O)[C@H](Cc2ccccc2)NC(=O)CN2CC(=O)N(CC(=O)N[C@@H](Cc3ccccc3)C(=O)N(C)c3ccc(OC)cc3)CC2=O)cc1 | 24.5 µM

Please find the next compound below.
[Q] Look up CC50 at 120 h: CN(C(=O)[C@H](Cc1ccccc1)NC(=O)CN1CCNCC1=O)c1ccccc1
[A] > 317 µM

----------
Recorded selectivity ratio by entry
test_protocol: in vitro
measurement_setup: human, MT4 cells
Description: Selectivity index, ratio of CC50 for cytotoxicity against human MT4 cells to EC50 for antiviral activity against HIV-1 IIIB infected in human MT4 cells
I'd appreciate a reply containing only the number, no unit.

COc1ccc(N(C)C(=O)[C@H](Cc2cc(F)cc(F)c2)NC(=O)CN2CCN(CC(=O)N[C@@H](Cc3ccccc3)C(=O)N(C)c3ccc(OC)cc3)C(=O)C2)cc1 | 9.11

[Q] Look up selectivity ratio: COc1ccc(N(C)C(=O)[C@H](Cc2cc(F)cc(F)c2)NC(=O)CN2CCN(CC(=O)N[C@@H](Cc3ccccc3)C(=O)N(C)c3ccccc3)C(=O)C2)cc1
[A] 3.05

[Q] Look up selectivity ratio: COc1ccc(N(C)C(=O)[C@H](Cc2ccccc2)NC(=O)CN2CC(=O)N(CC(=O)N[C@@H](Cc3ccccc3)C(=O)N(C)c3ccc(OC)cc3)CC2=O)cc1
[A] 6.82

[Q] Look up selectivity ratio: COc1ccc(N(C)C(=O)[C@H](Cc2ccccc2)NC(=O)CN2CCN(CC(=O)N[C@@H](Cc3cc(F)cc(F)c3)C(=O)N(C)c3ccc(OC)cc3)C(=O)C2)cc1
[A] 6.14

[Q] Look up selectivity ratio: COc1ccc(N(C)C(=O)[C@H](Cc2cc(F)cc(F)c2)NC(=O)CN2CCN(CC(=O)N[C@@H](Cc3ccccc3)C(=O)N(C)c3ccccc3)CC2=O)cc1
[A] 6.15

[Q] Look up selectivity ratio: CN(C(=O)[C@H](Cc1ccccc1)NC(=O)CN1CC(=O)N(CC(=O)N[C@@H](Cc2ccccc2)C(=O)N(C)c2ccccc2)CC1=O)c1ccccc1
[A] 16.9
